The origin of these recorded values is patent US20230069055A1.

- Study system: PD-L1 on CHO-K1/PD-L1/alphaAPC stimulator cells (UniProt Q9NZQ7 19-290, limits assumed)
- Sequence (Q9NZQ7 19-290 limits assumed): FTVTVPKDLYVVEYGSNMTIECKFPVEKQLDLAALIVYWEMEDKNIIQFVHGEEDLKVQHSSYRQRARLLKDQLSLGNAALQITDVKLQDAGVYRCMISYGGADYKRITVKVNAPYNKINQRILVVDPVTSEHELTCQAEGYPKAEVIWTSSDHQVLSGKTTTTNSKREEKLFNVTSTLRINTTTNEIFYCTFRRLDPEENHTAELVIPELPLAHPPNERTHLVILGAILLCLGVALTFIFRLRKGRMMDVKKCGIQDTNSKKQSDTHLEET
- Assay text: cell-based or functional assay
Observation type: PD-L1/PD-1 blockade EC50 (ng/ml) (ng/mL)
Only the number, expressed in ng/mL, is required.

Consider the following illustrative entries.
PD-L1 binding agent 11 (antibody, V domains shown) VH: QVQLVQSGAEVKKPGASVKVSCKASGYTFTGYYMHWVRQAPGQGLEWMGWMNPNSGNTGYAQKFQGRVTMTRDTSTSTVYMELSSLRSEDTAVYYCARDSWYGDWFDPWGQGTLVTVSS VL: DIQMTQSPSSLSASVGDRVTITCRASQSVGSWLAWYQQKPGKAPKLLIYGASSLQSGVPSRFSGSGSGTDFTLTISSLQPEDFATYYCQQSYSTPLTFGGGTKVEIK : 53.6
PD-L1 binding agent 10 (antibody, V domains shown) VH: QVQLVQSGAEVKKPGASVKVSCKASGYTFTGYYMHWVRQAPGQGLEWMGWMNPNGGTTGYAQNFQGRVTMTRDTSTSTVYMELSSLRSEDTAVYYCAREGFGPNAFDIWGQGTTVTVSS VL: DIQMTQSPSSLSASVGDRVTITCRASQSISSWLAWYQQKPGKAPKLLIYAASNLQSGVPSRFSGSGSGTDFTLTISSLQPEDFATYYCQQYYSTPYTFGQGTKVEIK : 67.4

Read the next record carefully.
Req: Need PD-L1/PD-1 blockade EC50 (ng/ml), item PD-L1 binding agent 6 (antibody, V domains shown) VH: QVQLVQSGAEVKKPGASVKVSCKASGYTFTSHDINWVRQAPGQGLEWMGWMNPNSGNTGYAQKFQGRVTMTRDTSTSTVYMELSSLRSEDTAVYYCARDRWYMGSADYWGQGTLVTVSS VL: DIQMTQSPSSLSASVGDRVTITCRASQSISTWLAWYQQKPGKAPKLLIYAASTLQSGVPSRFSGSGSGTDFTLTISSLQPEDFATYYCQQSYSTPFTFGQGTKVEIK
Resp: 106
